# protocol-summary: Counterscreen for Identifying a Potential Treatment of Ataxia-Telangiectasia: Hit Validation
# test-parameters: cell-free AlphaLISA/AlphaScreen artifact counterscreen, PBS only, no cells; series mostly up to 76.9 µM
# From the text: NIH Chemical Genomics Center [NCGC] NIH Molecular Libraries Probe Centers Network [MLPCN] Assay Submitter (PI): Wei Zheng and Yosef Shiloh Ataxia-telangiectasia (A-T) is a devastating and progressive disease for which, there is no cure. […] 10. Readout, EnVision, EnVision plate reader. […] PBS was dispensed into medium-binding white solid-bottom tissue culture treated Kalypsys plates with a Multidrop dispenser. […] EnVision protocol for 1536-well AlphaScreen read (30ms excitation, 100ms read), about 10 min/plate. […]
Calls of active or inactive are those of the source. Calls come from the whole dose curve; as a rule, active = well fitted activation curve with a large enough effect; inconclusive = small, poorly fitted or top-dose-only effect; inactive = no such curve, though single readings can be large or run the other way.
Classes used: active, inactive

1) COc1ccc(-c2cc(C(F)(F)F)c(C#N)c(SCC(=O)O)n2)cc1OC; inactive
2) CCC(C)N1C(=S)SC(C)(C)C1N(O)C(=O)NC1CCCCC1 (stereo unspecified); inactive
3) C=C1CCC[C@]2(C)C[C@H]3OC(=O)C(CN4CCCCC4CO)[C@H]3CC12 (stereo partly specified); inactive
4) OC1(CC#CCN2CCCCC2)c2ccccc2-c2ccccc21; inactive
5) CCCN1C2CCCC1CC(NC(=S)Nc1cccc(C)c1C)C2 (stereo unspecified); inactive
6) C/C=C\C=C/C(=O)Nc1cccc(C2=NOC3(C2)C[C@@H](C(N)=O)N(C(=O)COc2ccc(Cl)cc2)C3)c1 (stereo partly specified); inactive
7) O=C(O)c1ccc(C2Nc3ccccc3C(=O)N2Cc2ccccc2)cc1 (stereo unspecified); inactive
8) Cc1nn(CC(=O)N(C)Cc2ccc(F)cc2)c(C)c1[N+](=O)[O-]; inactive
9) Nc1ccc2ncccc2c1; inactive
10) COc1ccc(C2NC(=S)NC3=C2N2CCC3CC2)cc1 (stereo unspecified); inactive
11) CNC(=O)c1ccc(-c2sc3nc(N4CCOCC4)c4c(c3c2N)CC(C)(C)OC4)o1; active

Values were extracted from PubChem BioAssay AID493185.
